Tested on: NKL (IL-2 2.5 ng/mL);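 note: normalised to DMSO-only wells as negative and benzethonium chloride as positive control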
PROTOCOL_SUMMARY: percent inhibition of viability; higher = more inhibition
CONDITION_LABEL: 72 h; 100 nM
For each record, check the reported percent inhibition of viability: if it is below 20% write TRUE, else write FALSE.

Threshold test, percent inhibition of viability < 20%: Cc1c(Cn2c(C)nc3c(C(=O)O)cc(N4CCOCC4)cc32)cccc1C(F)(F)F (max concentration tested 10000 nM)
TRUE

Next record, please: C[C@@H](Oc1cc(-c2cnn(C3CCNCC3)c2)cnc1N)c1c(Cl)ccc(F)c1Cl [Crizotinib] (max concentration tested 1000 nM)
TRUE

And what about the molecule CC[C@@H]1C(=O)N(C)c2cnc(Nc3ccc(C(=O)N[C@H]4CC[C@H](N5CCN(CC6CC6)CC5)CC4)cc3OC)nc2N1C(C)C [Volasertib] (max concentration tested 1000 nM) ?
FALSE

Repeat with COc1cc2ncnc(Nc3ccc(F)c(Cl)c3)c2cc1NC(=O)/C=C/CN1CCCCC1 [Dacomitinib] (max concentration tested 1000 nM)
FALSE

Next molecule: CC(C)N(CCCNC(=O)Nc1ccc(C(C)(C)C)cc1)C[C@H]1O[C@@H](n2cc(Br)c3c(N)ncnc32)[C@H](O)[C@@H]1O [SGC0946] (max concentration tested 10000 nM)
TRUE

Then what about the molecule O=C1c2c(O)ccc(O)c2C(=O)c2c(NCCNCCO)ccc(NCCNCCO)c21 [Mitoxantrone] (max concentration tested 1000 nM) ?
FALSE

Same lookup for Oc1c2ccccc2c2c3c(cccc13)N=N2 (max concentration tested 100000 nM) , please.
TRUE
